test_target: recombinant human CK2 (Homo sapiens)
Construct: purchased Upstate
Sequence (P68400 whole entry): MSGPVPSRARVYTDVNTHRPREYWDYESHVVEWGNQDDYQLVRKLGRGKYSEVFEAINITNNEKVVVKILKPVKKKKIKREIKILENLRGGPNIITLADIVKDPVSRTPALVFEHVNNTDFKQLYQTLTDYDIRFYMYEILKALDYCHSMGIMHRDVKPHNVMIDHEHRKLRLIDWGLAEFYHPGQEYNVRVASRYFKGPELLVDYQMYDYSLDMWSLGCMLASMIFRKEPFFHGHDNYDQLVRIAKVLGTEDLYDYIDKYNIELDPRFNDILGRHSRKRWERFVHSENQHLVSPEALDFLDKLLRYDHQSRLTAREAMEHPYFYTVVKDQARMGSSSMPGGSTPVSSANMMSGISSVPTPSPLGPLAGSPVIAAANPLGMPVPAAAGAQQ
Sequence (P67870 whole entry partner): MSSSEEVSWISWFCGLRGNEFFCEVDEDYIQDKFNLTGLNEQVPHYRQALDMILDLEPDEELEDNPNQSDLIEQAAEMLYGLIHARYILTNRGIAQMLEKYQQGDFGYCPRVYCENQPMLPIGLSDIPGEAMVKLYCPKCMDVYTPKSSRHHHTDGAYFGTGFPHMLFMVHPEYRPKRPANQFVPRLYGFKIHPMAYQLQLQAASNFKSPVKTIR
measurement_notes: Cell-free CK2 assay
Assay type: biochemical
run_parameters: read-out: CK2: % inh 500 nM
Recorded inhibition at 0.5 µM values for a group of compounds are listed next.
Please give a number only; it is taken to be in %.

>  <compound>
O=C(O)c1ccc2c(c1)nc(-c1ccc(Cl)s1)c1ccncc12

>  <test_target>
recombinant human CK2 (Homo sapiens)

>  <inhibition at 0.5 µM [%]>
99

$$$$
>  <compound>
CCCNC(=O)c1ccc2c(c1)nc(-c1ccccc1)c1ccncc12

>  <test_target>
recombinant human CK2 (Homo sapiens)

>  <inhibition at 0.5 µM [%]>
-26

$$$$
>  <compound>
COc1cccc(F)c1-c1nc2cc(C(=O)O)ccc2c2cnccc12

>  <test_target>
recombinant human CK2 (Homo sapiens)

>  <inhibition at 0.5 µM [%]>
68

$$$$
>  <compound>
CC(=O)Nc1cccc(-c2nc3cc(C(=O)N4CCN(C)CC4)ccc3c3cnccc23)c1

>  <test_target>
recombinant human CK2 (Homo sapiens)

>  <inhibition at 0.5 µM [%]>
6

$$$$
>  <compound>
COC(=O)c1ccc2c(c1)nc(-c1cnn(C)c1)c1ccncc12

>  <test_target>
recombinant human CK2 (Homo sapiens)

>  <inhibition at 0.5 µM [%]>
-49

$$$$

Incoming: Consider the compound CN1CCN(C(=O)c2ccc3c(c2)nc(-c2ccccc2)c2ccncc23)CC1 . State its measured inhibition at 0.5 µM.
Outgoing: 57

Incoming: Consider the compound CN1CCCCC1CNC(=O)c1ccc2c(c1)nc(-c1cccc(N)c1)c1ccncc12 (stereo not drawn) . State its measured inhibition at 0.5 µM.
Outgoing: 9

Incoming: Consider the compound Cn1cc(-c2nc3cc(C(=O)O)ccc3c3cnc(NC4CC4)nc23)cn1 . State its measured inhibition at 0.5 µM.
Outgoing: 101

Incoming: Consider the compound N#Cc1cccc(-c2nc3cc(C(=O)O)ccc3c3cnccc23)c1 . State its measured inhibition at 0.5 µM.
Outgoing: 98

Incoming: Consider the compound O=C(O)c1ccc2c(c1)nc(-c1ccccc1OC(F)(F)F)c1ccncc12 . State its measured inhibition at 0.5 µM.
Outgoing: 23

Incoming: Consider the compound CN1CCCN(C(=O)c2ccc3c(c2)nc(-c2ccccc2)c2ccncc23)CC1 . State its measured inhibition at 0.5 µM.
Outgoing: -15

Incoming: Consider the compound CN1CCCN(C(=O)c2ccc3c(c2)nc(-c2cccc(N)c2)c2ccncc23)CC1 . State its measured inhibition at 0.5 µM.
Outgoing: -21

Incoming: Consider the compound Cn1cc(-c2nc3cc(C(=O)NC4CC4)ccc3c3cnc(NC4CC4)nc23)cn1 . State its measured inhibition at 0.5 µM.
Outgoing: 0

Incoming: Consider the compound Cc1noc(C)c1-c1nc2cc(C(=O)O)ccc2c2cnccc12 . State its measured inhibition at 0.5 µM.
Outgoing: 52

Incoming: Consider the compound O=C(O)c1ccc2c(c1)nc(-c1ccccc1)c1nc(NC3CC3)ncc12 . State its measured inhibition at 0.5 µM.
Outgoing: 99

Incoming: Consider the compound CC(=O)Nc1cccc(-c2nc3cc(C(=O)NCc4cnc(C)cn4)ccc3c3cnccc23)c1 . State its measured inhibition at 0.5 µM.
Outgoing: -6

Incoming: Consider the compound CN1CCN(C(=O)c2ccc3c(c2)nc(-c2cccc(N)c2)c2ccncc23)CC1 . State its measured inhibition at 0.5 µM.
Outgoing: 19

Incoming: Consider the compound COC(=O)c1ccc2c(c1)nc(-c1ccccc1)c1ccncc12 . State its measured inhibition at 0.5 µM.
Outgoing: -34

Incoming: Consider the compound Cn1cc(-c2nc3cc(C(=O)NC4CC4)ccc3c3cnccc23)cn1 . State its measured inhibition at 0.5 µM.
Outgoing: -15

Incoming: Consider the compound COC(=O)c1ccc2c(c1)nc(-c1cnn(C)c1)c1nc(S(C)(=O)=O)ncc12 . State its measured inhibition at 0.5 µM.
Outgoing: 11

Incoming: Consider the compound O=C(O)c1ccc2c(c1)nc(-c1ccc(F)cc1)c1ccncc12 . State its measured inhibition at 0.5 µM.
Outgoing: 98

Origin of values: patent US7910600B2
